target: Transient receptor potential cation channel subfamily M member 7 (Mus musculus); format: cell-based, HEK293
Sequence (Q923J1 whole entry): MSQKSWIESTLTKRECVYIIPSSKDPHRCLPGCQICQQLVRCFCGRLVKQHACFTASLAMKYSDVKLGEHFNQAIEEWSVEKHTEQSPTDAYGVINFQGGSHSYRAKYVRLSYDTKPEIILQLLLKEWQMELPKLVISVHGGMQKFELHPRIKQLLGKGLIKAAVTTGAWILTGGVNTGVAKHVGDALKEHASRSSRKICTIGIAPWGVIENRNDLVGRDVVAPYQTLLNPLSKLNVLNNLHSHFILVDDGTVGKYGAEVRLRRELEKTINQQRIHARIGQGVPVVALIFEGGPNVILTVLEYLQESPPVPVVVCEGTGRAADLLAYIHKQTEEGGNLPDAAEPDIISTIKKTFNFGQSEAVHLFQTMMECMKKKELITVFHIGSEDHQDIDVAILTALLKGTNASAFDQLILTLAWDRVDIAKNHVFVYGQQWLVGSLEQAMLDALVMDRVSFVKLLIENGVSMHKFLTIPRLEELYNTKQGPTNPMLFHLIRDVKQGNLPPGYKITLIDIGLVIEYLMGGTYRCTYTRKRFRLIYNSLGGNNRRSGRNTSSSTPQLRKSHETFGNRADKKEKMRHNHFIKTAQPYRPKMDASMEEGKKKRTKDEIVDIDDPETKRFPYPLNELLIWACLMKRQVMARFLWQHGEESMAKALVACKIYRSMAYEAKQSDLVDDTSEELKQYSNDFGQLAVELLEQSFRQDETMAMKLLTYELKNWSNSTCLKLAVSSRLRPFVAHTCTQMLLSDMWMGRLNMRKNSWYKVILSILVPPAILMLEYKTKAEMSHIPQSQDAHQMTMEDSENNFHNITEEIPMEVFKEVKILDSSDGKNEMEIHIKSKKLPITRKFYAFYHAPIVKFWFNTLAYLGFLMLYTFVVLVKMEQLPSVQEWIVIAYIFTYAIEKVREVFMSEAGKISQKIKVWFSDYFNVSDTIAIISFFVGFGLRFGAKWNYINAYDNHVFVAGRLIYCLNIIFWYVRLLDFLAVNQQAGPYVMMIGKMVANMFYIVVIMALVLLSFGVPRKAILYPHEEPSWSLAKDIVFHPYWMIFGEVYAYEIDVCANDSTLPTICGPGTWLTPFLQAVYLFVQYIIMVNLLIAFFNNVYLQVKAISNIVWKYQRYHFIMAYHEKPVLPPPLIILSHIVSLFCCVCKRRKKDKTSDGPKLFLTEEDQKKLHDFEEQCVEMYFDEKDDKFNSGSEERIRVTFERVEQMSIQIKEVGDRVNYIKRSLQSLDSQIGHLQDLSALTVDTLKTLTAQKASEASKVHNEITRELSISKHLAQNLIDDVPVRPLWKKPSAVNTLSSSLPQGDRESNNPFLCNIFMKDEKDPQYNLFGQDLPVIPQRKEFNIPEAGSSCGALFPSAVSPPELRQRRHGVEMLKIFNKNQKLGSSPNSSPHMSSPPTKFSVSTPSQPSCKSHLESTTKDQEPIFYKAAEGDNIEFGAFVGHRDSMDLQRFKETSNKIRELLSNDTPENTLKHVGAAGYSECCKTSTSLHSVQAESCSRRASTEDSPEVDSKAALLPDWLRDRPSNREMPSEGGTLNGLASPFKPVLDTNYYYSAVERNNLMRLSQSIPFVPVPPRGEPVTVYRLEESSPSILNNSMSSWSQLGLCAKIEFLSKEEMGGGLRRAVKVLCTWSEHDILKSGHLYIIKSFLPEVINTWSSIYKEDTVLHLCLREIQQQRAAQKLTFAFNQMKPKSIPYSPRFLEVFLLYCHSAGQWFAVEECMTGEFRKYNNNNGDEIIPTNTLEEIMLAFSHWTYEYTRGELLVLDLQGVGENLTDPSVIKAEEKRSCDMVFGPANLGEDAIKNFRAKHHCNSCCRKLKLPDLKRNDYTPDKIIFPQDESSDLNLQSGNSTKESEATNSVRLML
Description: Inhibition of FLAG-tagged mouse TRPM7 transfected in HEK293 cells assessed as inhibition of channel-mediated Mn2+ influx incubated for ~15 mins and measured for 90 secs by Fura-2-dye based fluorescence analysis
Readout label: IC50 (µM)

Structure: C=C1[C@@H]2[C@@H](OC(C)=O)OC=C([C@H](C/C=C(\C)COC(C)=O)OC(C)=O)[C@H]2CC/C(C)=C/C[C@H]1O
Display unit: µM
IC50: 12
//
Structure: C=C1CC/C=C(\C)CC[C@@H]2C([C@H](C/C=C(\C)COC(C)=O)OC(C)=O)=CO[C@H](OC(C)=O)[C@@H]12
Display unit: µM
IC50: 20

I = C=C1CC[C@H](OC(C)=O)C(=C)CC[C@@H]2C([C@H](C/C=C(\C)COC(C)=O)OC(C)=O)=CO[C@H](OC(C)=O)[C@@H]12
II = C=C1CC[C@@H]2O[C@@]2(C)CC[C@@H]2C([C@H](C/C=C(\C)COC(C)=O)OC(C)=O)=CO[C@H](OC(C)=O)[C@@H]12
III = C=C1[C@@H]2[C@@H](OC(C)=O)OC=C([C@H](C/C=C(\C)COC(C)=O)OC(C)=O)[C@H]2CC[C@]2(C)O[C@H]2C[C@H]1O
Task: Rank items: key IC50, increasing. Dear reader, please state the labels in the requested order.
Output: III, I, II
(III: 13 µM, I: 20 µM, II: 33 µM)
